Quick list: IC50 per entry.
measurement.target: recombinant LpxA enzyme (E. coli) (Escherichia coli)
Sequence (P0A722 whole entry): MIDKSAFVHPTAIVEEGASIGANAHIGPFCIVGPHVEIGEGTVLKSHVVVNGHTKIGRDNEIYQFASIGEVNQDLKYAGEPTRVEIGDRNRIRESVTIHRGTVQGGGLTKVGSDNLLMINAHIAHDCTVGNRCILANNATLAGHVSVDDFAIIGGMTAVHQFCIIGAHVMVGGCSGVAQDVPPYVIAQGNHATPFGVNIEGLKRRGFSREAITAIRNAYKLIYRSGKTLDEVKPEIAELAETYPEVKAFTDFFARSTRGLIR
measurement.description: LpxA in vitro substrate acylation assay with RapidFire MS analysis (E. coli)
Format: biochemical

N#Cc1ccc(CN(Cc2nnc(N)o2)C(=O)CSc2cc(-c3c[nH]cn3)ccc2Cl)c(F)c1 : 5 to 20 µM
N#Cc1ccc(CN(CC(=O)N2CCOCC2)C(=O)CSc2ccccc2Cl)cc1 : > 20 µM
NC(=O)c1ccc(CN(Cc2nnc(N)o2)C(=O)CSc2ccccc2Cl)cc1 : > 20 µM
CC(=O)Nc1ccc(CN(Cc2nnc(N)o2)C(=O)CSc2ccccc2Cl)cc1 : > 20 µM
N#Cc1ccc(CN(Cc2nnn[nH]2)C(=O)CSc2ccccc2Cl)cc1 : > 20 µM

Return reported IC50; argument: "N#Cc1ccc(CN(Cc2nnc(N)o2)C(=O)CCc2ccccc2Cl)cn1"
> 20 µM

###

Quick list: IC50 per entry.
measurement.target: recombinant LpxD enzyme (P. aeruginosa) (Pseudomonas aeruginosa)
Sequence (Q9HXY6 whole entry): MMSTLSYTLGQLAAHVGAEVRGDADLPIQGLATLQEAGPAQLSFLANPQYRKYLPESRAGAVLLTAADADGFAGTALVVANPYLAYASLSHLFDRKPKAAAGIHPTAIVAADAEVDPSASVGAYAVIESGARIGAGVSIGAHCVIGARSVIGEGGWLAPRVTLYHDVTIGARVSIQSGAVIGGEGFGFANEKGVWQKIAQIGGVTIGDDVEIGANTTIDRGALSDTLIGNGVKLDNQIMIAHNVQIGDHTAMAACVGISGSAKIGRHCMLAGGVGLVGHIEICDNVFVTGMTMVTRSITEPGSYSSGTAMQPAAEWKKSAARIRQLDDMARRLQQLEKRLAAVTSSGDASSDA
measurement.description: LpxD in vitro substrate acylation assay with RapidFire MS analysis (P. aeruginosa)
assay.conditions: P. aeruginosa enzyme 10 nM, EcACP-C10, 120 min

Below: 2 molecules and their reported IC50.
CN1CC(NC(=O)CN(Cc2ccc(C#N)cc2)C(=O)CSc2ccccc2Cl)C1 : > 20 µM
N#Cc1ccc(CN(CC(=O)NC2CNC2)C(=O)CSc2ccccc2Cl)cc1 : > 20 µM

Shift focus to the following entry.
Return reported IC50; argument: "N#Cc1ccc(CN(CC(=O)N2CCOCC2)C(=O)CSc2ccccc2Cl)cc1"
> 20 µM

###

Quick list: MIC per entry.
System: P. aeruginosa PAO397
measurement.description: Broth microdilution MIC, P. aeruginosa PAO397
Format: cell-based
assay.conditions: Pseudomonas aeruginosa, PAO397, 18 h, read-out: PAO397 KO MIC
Protocol: Exemplary compounds from the above Examples were tested to determine their minimum inhibitory concentration (MIC) for exemplary strains of Escherichia and Pseudomonas bacteria using broth microdilution methods. Assay procedures and results are described below. […]

N#Cc1ccc(CN(CC(=O)NC2CCNCC2)C(=O)CSc2ccccc2Cl)cc1 [compound 4] : 16 to 64 µg/mL
CCc1ccc(F)cc1OCC(=O)N(Cc1nnc(N)o1)Cc1ccc(C#N)cc1F [compound 38] : < 1 µg/mL
CCc1ccccc1OCC(=O)N(Cc1nnc(N)o1)Cc1ccc(C#N)cc1F [compound 37] : < 1 µg/mL

Return reported MIC; argument: N#Cc1ccc(CN(C(=O)CSc2ccccc2Cl)[C@@H](CO)c2nnc(N)o2)cn1 [Compound No. 8]
< 1 µg/mL

###

measurement.target: recombinant LpxA enzyme (P. aeruginosa) (Pseudomonas aeruginosa, UniProt Q9X6P4)
Sequence (Q9X6P4 whole entry): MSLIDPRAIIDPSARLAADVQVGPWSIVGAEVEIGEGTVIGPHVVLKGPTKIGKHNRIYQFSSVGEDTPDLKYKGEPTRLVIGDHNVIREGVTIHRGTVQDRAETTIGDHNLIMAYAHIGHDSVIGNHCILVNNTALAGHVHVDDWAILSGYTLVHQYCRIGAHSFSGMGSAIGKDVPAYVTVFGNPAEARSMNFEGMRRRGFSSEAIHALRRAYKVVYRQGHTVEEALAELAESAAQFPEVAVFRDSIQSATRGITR
measurement.description: LpxA in vitro substrate acylation assay with RapidFire MS analysis (P. aeruginosa)
assay.conditions: P. aeruginosa enzyme 0.5 nM, PaACP-C10, 30 min
attribute.measured: IC50

Below: 3 compounds and their reported IC50.
Nc1nnc(CN(Cc2csc([N+](=O)[O-])c2)C(=O)COc2cc(F)cc(F)c2C2CC2)o1 : 20 to 100 nM
[2H]C([2H])(Oc1ccccc1C([2H])([2H])C([2H])([2H])[2H])C(=O)N(Cc1nnc(N)o1)Cc1ccc([N+](=O)[O-])cc1F : 20 to 100 nM
N#Cc1ccc(CN(Cc2nnc(N)o2)C(=O)CSc2cc(F)cc(F)c2Cl)cn1 : < 20 nM

Shift focus to the following entry.
Return reported IC50; argument: "N#Cc1ccc(CN(CC(=O)N2CCOCC2)C(=O)CSc2ccccc2Cl)cc1"
> 1000 nM

###

measurement.target: recombinant LpxA enzyme (P. aeruginosa) (Pseudomonas aeruginosa, UniProt Q9X6P4)
measurement.description: LpxA in vitro substrate acylation assay with RapidFire MS analysis (P. aeruginosa)
assay.conditions: P. aeruginosa enzyme 0.5 nM, PaACP-C10, 30 min
Quick list: IC50 per entry.

N#Cc1ccc(CN(Cc2nnc(N)o2)C(=O)CSc2cc(OCCN)ccc2Cl)c(F)c1 [Compound No. 60] : 100 to 1000 nM
N#Cc1ccc(CN(Cc2nnc(N)o2)C(=O)COc2cc(F)cc(F)c2Br)c(F)c1 [compound 96] : < 20 nM
N#Cc1ccc(CN(CC(=O)N2CCOC[C@@H]2CN)C(=O)CSc2cc(F)cc(F)c2Cl)c(F)c1 [compound 106] : > 1000 nM
CCc1ccccc1SCC(=O)N(CC(=O)NC)Cc1ccc(-n2cncn2)cc1 [compound 90] : 100 to 1000 nM
N#Cc1ccc(CN(Cc2nnc(N)o2)C(=O)COc2ccccc2Br)cc1 [compound 35] : 20 to 100 nM

Return reported IC50; argument: N#Cc1ccc(CN(Cc2nnc(N)o2)C(=O)CSc2cc(F)ccc2Cl)c(F)c1 [compound 30]
< 20 nM

Can you handle Cc1noc(CN(Cc2ccc(C#N)cc2)C(=O)CSc2ccccc2Cl)n1 [Compound No. 68] next?
20 to 100 nM

Can you handle N#Cc1ccc(CN(CC(=O)NC2CNC2)C(=O)CSc2ccccc2Cl)cc1 [compound 5] next?
100 to 1000 nM

###

Quick list: pIC50 per entry.
measurement.target: recombinant LpxA enzyme (P. aeruginosa) (Pseudomonas aeruginosa)
measurement.description: LpxA in vitro substrate acylation assay with RapidFire MS analysis (P. aeruginosa)
assay.conditions: P. aeruginosa enzyme 0.5 nM, PaACP-C10, 30 min
pIC50: −log10 of the molar value.

CCc1c(F)cc(F)cc1OCC(=O)N(Cc1ccc2c(c1)CC(=O)N2)Cc1nnc(N)o1 : > 7.70
[2H]C([2H])(Oc1cc(F)cc(F)c1C([2H])([2H])C([2H])([2H])[2H])C(=O)N(Cc1nnc(N)o1)Cc1ccc([N+](=O)[O-])cc1F : > 7.70
N#Cc1ccc(CN(CC(=O)N[C@@H](CN)C(=O)O)C(=O)CSc2cc(F)cc(F)c2Cl)c(F)c1 : 6.00 to 7.00
CN1CC(NC(=O)CN(Cc2ccc(C#N)cc2)C(=O)CSc2ccccc2Cl)C1 : < 6.00
Cc1nnc(CN(Cc2ccc(C#N)cc2)C(=O)CSc2ccccc2Cl)[nH]1 : 6.00 to 7.00
C[C@@H](Oc1ccccc1Cl)C(=O)N(Cc1ccc(C#N)cc1)Cc1nnc(N)o1 : 6.00 to 7.00
CC(=O)Nc1ccc(CN(Cc2nnc(N)o2)C(=O)CSc2ccccc2Cl)cc1 : 6.00 to 7.00
NCCOc1ccc(Cl)c(SCC(=O)N(Cc2ccc(C(N)=O)c(C(=O)O)c2)Cc2nnc(N)o2)c1 : < 6.00
N#Cc1ccc(CN(Cc2cc[nH]n2)C(=O)CSc2ccccc2Cl)cc1 : 6.00 to 7.00
NCc1ccc(CN(Cc2nnc(N)o2)C(=O)CSc2ccccc2Cl)cc1 : < 6.00

Return reported pIC50; argument: "N#Cc1ccc(CN(C(=O)CSc2ccccc2Cl)[C@@H](CO)c2nnc(N)o2)cn1"
> 7.70

Can you handle "Nc1nnc(CN(Cc2ccc(S(N)(=O)=O)cc2F)C(=O)CSc2cc(F)ccc2Cl)o1" next?
7.00 to 7.70

Can you handle "Cc1cnc(CN(Cc2ccc(C#N)cc2)C(=O)CSc2ccccc2Cl)o1" next?
6.00 to 7.00

###

measurement.target: recombinant LpxA enzyme (P. aeruginosa) (Pseudomonas aeruginosa, UniProt Q9X6P4)
measurement.description: LpxA in vitro substrate acylation assay with RapidFire MS analysis (P. aeruginosa)
assay.conditions: P. aeruginosa enzyme 0.5 nM, PaACP-C10, 30 min
Method: Exemplary compounds from the above Examples were tested for ability to inhibit LpxA activity using an in vitro substrate acylation assay with RapidFire™ MS analysis. Assay procedures and results are described below. […]
pIC50: −log10 of the molar value.
Quick list: pIC50 per entry.

Below: 3 compounds and their reported pIC50.
Nc1nnc(CN(Cc2ccc(S(N)(=O)=O)cc2)C(=O)CSc2cc(F)cc(F)c2Cl)o1 : > 7.70
[2H]C([2H])(Oc1ccccc1C([2H])([2H])C([2H])([2H])[2H])C(=O)N(Cc1ccc([N+](=O)[O-])cc1)Cc1nnc(N)o1 : 7.00 to 7.70
N#Cc1ccc(CN(Cc2nnc(N)o2)C(=O)CSc2cccc(F)c2Cl)c(F)c1 : > 7.70

Return reported pIC50; argument: "NC(=O)c1ccc(CN(Cc2nnc(N)o2)C(=O)CSc2ccccc2Cl)cc1"
6.00 to 7.00

Can you handle "[2H]C([2H])(Oc1ccccc1C([2H])([2H])C([2H])([2H])[2H])C(=O)N(Cc1ccc(C#N)nc1)Cc1nnc(N)o1" next?
7.00 to 7.70

Can you handle "N#Cc1ccc(CN(CC(=O)N2CCNCC2)C(=O)CSc2ccccc2Cl)cc1" next?
< 6.00

Can you handle "Cc1ccccc1SCC(=O)N(Cc1ccc(C#N)nc1)Cc1nnc(N)o1" next?
6.00 to 7.00

Can you handle "C[C@H](Oc1ccccc1Cl)C(=O)N(Cc1ccc(C#N)cc1)Cc1nnc(N)o1" next?
< 6.00

Can you handle "Nc1nnc(CN(Cc2ccc([N+](=O)[O-])cc2)C(=O)COc2cc(F)cc(F)c2C2CC2)o1" next?
> 7.70

Can you handle "Nc1nnc(CN(Cc2ccc([N+](=O)[O-])cc2F)C(=O)COc2cc(F)cc(F)c2C2CC2)o1" next?
> 7.70
